The reported numbers originate from PubChem BioAssay (NCI).

System: ACHN renal
test_summary: NCI-60 one-dose screen, 48 h (100 = growth as untreated, 0 = no growth, -100 = all killed)
run_parameters: 10 µM unless noted
About 83,000 compounds went through this panel and 20% of them were active in at least one assay; those are over-represented in the sample as a whole. Active and inactive are the calls of the source. Rule for the calls: active = growth percent below 10; inactive = the rest.
property_measured: growth

>  <compound>
CC(C)c1ccc(COCc2cc(CN3CCCC3)c(O)c3ncccc23)cc1

>  <growth>
6.16% (active)

$$$$
>  <compound>
CC12CCC3c4ccccc4CCC3(CO1)C2 (configuration not stated)

>  <growth>
98.4% (inactive)

$$$$
>  <compound>
CCOC(=O)c1c(NC(=O)c2ccc(C(C)C)cc2)sc2c(CN(C)C)c(O)ccc12

>  <growth>
37.8% (inactive)

$$$$

Lookup: Looking for the measured growth of Cc1nc(-c2ccccc2)cc2c(O)c(C(=O)NN)[nH]c(=O)c12 , can you help?
Found: 109% (inactive)

Lookup: Follow-up item: C=C(C)[C@@H]1CC[C@]2(C(=O)NCCNCCN)CC[C@]3(C)[C@H](CC[C@@H]4[C@@]5(C)C/C(=C/c6ccncc6)C(=O)C(C)(C)[C@@H]5CC[C@]43C)[C@@H]12
Found: 100% (inactive)

Lookup: What do you get for N#CC1CCc2c(c(-c3cn[nH]c3C(F)(F)F)nc3c(F)cc4[nH]ncc4c23)C1 (configuration not stated) ?
Found: 62.9% (inactive)

Lookup: Try CN1CCN(Cc2ccc(NC(=O)c3cncc(C#Cc4cnc(N)c5ccccc45)c3)cc2C(F)(F)F)CC1 next.
Found: -100% (active)

Lookup: One more compound: Oc1ccc(CN2CCC(N3CCCCC3)CC2)c2cccnc12
Found: 8.86% (active)

----------
System: HT29 colon
test_summary: NCI-60 one-dose screen, 48 h (100 = growth as untreated, 0 = no growth, -100 = all killed)
run_parameters: 10 µM unless noted
About 83,000 compounds went through this panel and 20% of them were active in at least one assay; those are over-represented in the sample as a whole.
Criterion: growth strictly less than 80%. Met: satisfied. Not met: not satisfied.

>  <compound>
CCOC(=O)c1cc2c(=O)oc3ccccc3c2oc1=O

>  <assigned_category>
not satisfied

$$$$
>  <compound>
COc1cc(CNC(=O)/C=C/C=C/c2ccc3c(c2)OCO3)ccc1OCc1cn(-c2ccc(C)c(C)c2)nn1

>  <assigned_category>
not satisfied

$$$$
>  <compound>
COc1cc(CNS(=O)(=O)c2ccc(C)cc2)ccc1OCc1cn(-c2ccc(Br)cc2)nn1

>  <assigned_category>
not satisfied

$$$$
>  <compound>
Cn1c(O)c(C=NCCN=Cc2c(O)n(C)c(=O)n(C)c2=O)c(=O)n(C)c1=O

>  <assigned_category>
not satisfied

$$$$
>  <compound>
O=[N+]([O-])/C(=C/C=C/c1ccccc1)c1ccccc1

>  <assigned_category>
satisfied

$$$$

Lookup: Consider COc1ccccc1Nc1nc2c(s1)C1=CC[C@H]3[C@@H]4CC[C@H]([C@H](C)CCCC(C)C)[C@@]4(C)CC[C@@H]3[C@@]1(C)CC2 . Does its growth lie strictly below 80%?
Found: not satisfied

Lookup: Input COC1=CC(c2ccc[nH]2)=N/C1=C\c1[nH]c(C)c(C(=O)OCc2ccccc2)c1C
Found: satisfied

Lookup: What do you get for CCOC(=O)C1=C(NC)OCC1=O ?
Found: not satisfied

Lookup: Try CCN(CC)CCSc1nc(-c2ccccc2)c(C#N)c(=O)[nH]1 next.
Found: not satisfied

Lookup: Also need N#CC1=C(N)Oc2c(sc3c(Br)cccc23)C1c1ccc(F)cc1 (stereo unspecified) , thanks.
Found: satisfied

----------
Test system: NCI-H226 lung
test_summary: NCI-60 one-dose screen, 48 h
run_parameters: 10 µM unless noted
Compounds without any hit were thinned out: in the full panel of roughly 83,000, 20% have a hit. Active and inactive are the calls of the source. Rule for the calls: active = growth percent below 10; inactive = the rest.
// one of YES = active, NO = inactive, no free text

Lookup: So what was the verdict on CCCc1cc(NC)nc(S(=O)(=O)CC)n1 in this test?
Found: NO

Lookup: Now this one: O=[N+]([O-])c1ccc(S(=O)(=O)N2CCN(C3=NS(=O)(=O)c4ccccc4N3c3ccccc3)CC2)cc1
Found: NO

Lookup: Next record, please: Cc1cc(Cl)ccc1NC(=O)c1cc2ccccc2cc1O
Found: NO

Lookup: Same lookup for O=C1/C(=C/c2ccc(F)cc2)COc2ccc(O)c(O)c21 , please.
Found: NO

Lookup: Further, for Oc1ccc(CN2CCC(N3CCCCC3)CC2)c2cccnc12 ?
Found: NO

Lookup: Repeat with O=C1C(Cl)=C(Nc2ccc(O)cc2)C(=O)N1Cc1ccc(Cl)cc1
Found: NO

Lookup: Try this molecule next: Cc1ccccc1/C=C1\CN(C(=O)OC(C)(C)C)C/C(=C\c2ccccc2C)C1=O
Found: NO

Lookup: Now this one: O=C(O)CCCN1C(=O)/C(=C/C(Cl)=C/c2ccccc2)SC1=S
Found: NO

Lookup: Also, O=C1Nc2ccccc2/C1=C\c1nc(-c2ccccc2)n2ccccc12 please.
Found: NO

Lookup: Next record, please: O=C(CI)NC1Oc2ccccc2-c2oc(=O)c(-c3ccccc3)cc21 (centres undefined)
Found: YES

Lookup: Moving on to the next molecule: CC1(C)CCC(S(=O)(=O)c2ccc3c(c2)/C(=N\O)c2cc(S(=O)(=O)N4CCC(O)(c5cccc(C(F)(F)F)c5)CC4)ccc2-3)CC1
Found: YES

Lookup: Also COc1ccc(C(=O)Nc2ncc(Cc3cccc(Cl)c3)s2)cc1OC , if possible.
Found: NO

Lookup: Now the molecule CCOC(=O)c1c(C)c2c(n1C)CSc1cc(C(=O)c3ccccc3)c(=O)[nH]c1-2
Found: NO

Lookup: Consider next the molecule Cc1cnc(C(=O)NNc2nc3sc4c(c3c(=O)n2C)C(C)CCC4)cn1 (centres undefined) in the same way.
Found: YES

----------
Tested on: SF-539 CNS
test_summary: NCI-60 one-dose screen, 48 h
run_parameters: 10 µM unless noted
This is part of a sample that, as a whole, favours compounds with a hit. Of some 83,000 tested, about 20% had one in any assay. Calls of active or inactive are those of the source. The calls were made as follows: active = growth percent below 10; inactive = the rest.
Choose one outcome from this list and give only that: y = active, n = inactive

Lookup: Record lookup: outcome of this test for N#C/C(=C\c1ccc(-c2ccc(Cl)cc2)o1)C(=O)Nc1ncc(Cc2ccc(Cl)cc2)s1 ?
Found: n

----------
Test system: OVCAR-5 ovarian
test_summary: NCI-60 one-dose screen, 48 h (100 = growth as untreated, 0 = no growth, -100 = all killed)
run_parameters: 10 µM unless noted
This is part of a sample that, as a whole, favours compounds with a hit. Of some 83,000 tested, about 20% had one in any assay.
property_measured: growth (%)
Form entry: value (%) — number only.

Guide cases for growth, answers given:
>  <compound>
O=C1/C(=C/c2ccc(F)cc2)COc2ccc(O)cc21

>  <assayed_system>
OVCAR-5 ovarian

>  <units>
%

>  <growth>
96.9

$$$$
>  <compound>
O=C(O)c1ccc(-n2cc(/C=N/Nc3ccc(F)cc3)c(-c3cc4ccccc4oc3=O)n2)cc1

>  <assayed_system>
OVCAR-5 ovarian

>  <units>
%

>  <growth>
82.4

$$$$
>  <compound>
COc1ccc(-c2nc3c(c(-c4ccccc4)nn3-c3ccccc3)c(-c3ccc(N4CCOCC4)cc3)c2C#N)cc1

>  <assayed_system>
OVCAR-5 ovarian

>  <units>
%

>  <growth>
102

$$$$
>  <compound>
O=C1c2cccc(NCCN=Cc3cc(O)ccc3O)c2C(=O)c2c(NCCN=Cc3cc(O)ccc3O)cccc21

>  <assayed_system>
OVCAR-5 ovarian

>  <units>
%

>  <growth>
-28.1

$$$$

As a next step, examine the compound that follows.
Lookup: # get_value(readout='growth', item= Cc1cccc2c1NC(=O)C2(c1ccc(O)cc1)c1ccc(O)cc1 )
Found: 75.9

----------
System: UACC-257 melanoma
test_summary: NCI-60 one-dose screen, 48 h
run_parameters: 10 µM unless noted
The panel holds about 83,000 compounds, 20% with a hit somewhere; the sample as a whole holds those more often. Active and inactive are the calls of the source. The calls were made as follows: active = growth percent below 10; inactive = the rest.
Hello, when you answer, please use one of the following outcomes: active, inactive

>  <molecule>
O=C1/C(=C/c2ccc(F)cc2)COc2ccc(O)c(O)c21

>  <assigned_category>
inactive

$$$$
>  <molecule>
O=C1/C(=C/c2ccc(Cl)cc2)COc2ccc(O)c(O)c21

>  <assigned_category>
inactive

$$$$
>  <molecule>
CS(=O)(=O)c1cccc(-c2c(-c3cccc(OS(N)(=O)=O)c3)nc3sccn23)c1

>  <assigned_category>
inactive

$$$$
>  <molecule>
COc1cc(-c2csc(NC(=O)c3cc(-n4cnc(C)c4)cc(C(F)(F)F)c3)n2)cc(OC)c1OC

>  <assigned_category>
inactive

$$$$
>  <molecule>
CCOC(=O)C1=C(NC)OCC1=O

>  <assigned_category>
inactive

$$$$

Lookup: Dear colleague, could you share the recorded outcome for CS(=O)(=O)C1=CN(CCO)C(=O)N2CCCN=C12 when you have a moment?
Found: inactive

Lookup: Repeat with C=C(C)[C@@H]1CC[C@]2(C(=O)O)CC[C@]3(C)[C@H](CC[C@@H]4[C@@]5(C)C[C@@H](Cc6cn(CCO[C@@H]7O[C@H](COC(C)=O)[C@H](OC(C)=O)[C@H](OC(C)=O)[C@H]7OC(C)=O)nn6)[C@H](O)C(C)(C)[C@@H]5CC[C@]43C)[C@@H]12
Found: inactive

Lookup: Item: C[C@@H]1CCC[C@H]1CC(N)C(=O)O (stereo partly specified)
Found: inactive

Lookup: Same for CC(=O)n1nc(C(=O)OC(C)C)c2cc(C)c(C)cc21
Found: inactive

Lookup: Then what about the molecule Cn1c(=O)c2c(nc(NC3=NS(=O)(=O)c4ccccc43)n2CC(=O)N2CCc3ccccc32)n(C)c1=O ?
Found: inactive

Lookup: One more molecule: CCCCN1C(=O)/C(=c2\sc3n(c2=O)C2C(NN=3)N(CC)C(=O)N2CC)c2ccccc21 (stereo unspecified)
Found: active

Lookup: # iterate: C=C1C(=O)O[C@H]2[C@H]1CC/C(COC(=O)NCc1ccc(Cn3c(=O)sn(CCI)c3=O)cc1)=C\CC[C@@]1(C)O[C@@H]21
Found: inactive

Lookup: Please answer likewise for O=C(N/N=C/c1ccc(F)cc1)c1ccc(C(F)(F)F)nc1Nc1cccc(C(F)(F)F)c1
Found: active

Lookup: Lookup Oc1c(Cl)cc(Cl)cc1/C=N/Nc1nnc(N/N=C/c2cc(Cl)cc(Cl)c2O)c2ccccc12
Found: inactive

Lookup: Please do the same for CCCCC[C@@H]1Cc2cc(O)c(C(=O)O)c3c2[C@H](C[C@]2(OC[C@@H](CC(=O)[C@@](C)(CC)C(=O)OC)[C@@H]2C)O3)O1 as well.
Found: inactive

Lookup: Let us now turn to O=C(c1cc2ccccc2o1)c1nn(-c2ccccc2)/c(=N/N=Cc2cn(-c3ccccc3)nc2-c2cc3ccccc3oc2=O)s1
Found: inactive

Lookup: Repeat with O=C(O)/C(=C\c1ccc(Cl)cc1)c1ccc(Cl)cc1
Found: inactive

Lookup: Try this molecule next: Cc1ccc(/C=N/Nc2nc(Nc3ccccc3)nc(-n3nc(C)cc3C)n2)cc1
Found: inactive

Lookup: Please give the result for C=C1C(=O)O[C@H]2[C@H]1CC/C(COC(=O)N[C@H]1C[C@H](O[C@H]3C[C@](O)(C(=O)CO)Cc4c(O)c5c(c(O)c43)C(=O)c3c(OC)cccc3C5=O)O[C@@H](C)[C@H]1O)=C\CC[C@@]1(C)O[C@@H]21 too.
Found: inactive

Lookup: COc1cc(-c2cc(-c3ccc(N(C)C)cc3)nc(N3CCC(O)CC3)c2C#N)cc(OC)c1OC , same question.
Found: active

Lookup: Also need CNc1nc(S(=O)c2ccc(C#N)cc2)nc2ccccc12 (stereo unspecified) , thanks.
Found: inactive

Lookup: Check Cc1ccc2c(n1)C(=O)c1[nH]c3ccccc3c1C2=O too.
Found: inactive

Lookup: Also check OB(O)c1cccc(-c2nc3ccc4[nH]ncc4c3c3c2CCCC3)c1
Found: inactive
